Origin of values: ChEMBL document CHEMBL3507680

Below, each of the molecules is paired with its reported cytotoxicity at 70.5 h value.
Assay: Human HepG2 cell viability assay in 384 well format
Format: toxicity, cell-based
Set-up: dose 125 nL, time 70.5 hour; concentration not given beside the values
Settings: HepG2 cells, read-out: Inhibition

Worked cases, cytotoxicity at 70.5 h given:
- molecule: "Cc1cc(C(=O)N2CCN(Cc3ccsc3)CC2)n(C)n1"
  cytotoxicity at 70.5 h: "-14.3%"
- molecule: "Cc1ccc(C(=O)N2CCC(Oc3cccc(C)c3C)CC2)c(=O)[nH]1"
  cytotoxicity at 70.5 h: "-4.54%"
- molecule: "CNC(=O)[C@@H]1C[C@H]2CN(Cc3c(C)noc3C)C[C@H]2N1C(C)C"
  cytotoxicity at 70.5 h: "-7.3%"

Task: Would you mind telling me what cytotoxicity at 70.5 h value was observed for CC(=O)Nc1nc2c(s1)CN(CC(=O)Nc1ccc(C)c(Cl)c1)CC2 ?
Output: -14.4%

Task: Also need Cc1n[nH]c(C)c1NC(=O)NCc1cc[nH]n1 , thanks.
Output: -12.5%

Task: Also need N#Cc1ccc(OC2CCN(CC(=O)NCC3CCCO3)CC2)cc1 (stereo not drawn) , thanks.
Output: -5%

Task: Also need Cc1nc2cc(O)nn2c(C)c1CCC(=O)NCCc1nccn1C , thanks.
Output: -10.9%

Task: Also need CC(C)Oc1cccc(F)c1C(C(=O)O)N1CCCN(C)CC1 (stereo not drawn) , thanks.
Output: 26.8%

Task: Also need Cc1cc(C)c2c(OCC(=O)N(C)CC(=O)NC(C)C)nn(C)c2n1 , thanks.
Output: -19.9%

Task: Also need c1ccc(CN2CCC(CCNc3ncnc4c3CCNCC4)C2)cc1 (stereo not drawn) , thanks.
Output: -2.61%

====

Assay: Human HepG2 cell viability assay in 384 well format
Type: toxicity, cell-based
Design: dose 125 nL, time 70.5 hour; concentration not given beside the values
Details: HepG2 cells, read-out: Inhibition
quantity: cytotoxicity at 70.5 h (%)
Report the figure in % without appending any unit label.

- compound: "O=C(CCN1CCCC1c1ccccn1)N1CCc2ccccc2C1 (stereo not drawn)"
  cytotoxicity at 70.5 h (%): -16.1

Would you kindly look at the next entry?
Task: Would you mind telling me what cytotoxicity at 70.5 h value was observed for CN(C)C(=O)CN1C[C@@H]2CC[C@H](C1)N(Cc1c(F)cccc1Cl)C2 ?
Output: -6.28

====

Assay: Human HepG2 cell viability assay in 384 well format
Assay type: toxicity, cell-based
Parameters: dose 125 nL, time 70.5 hour; concentration not given beside the values
Details: HepG2 cells, read-out: Inhibition
quantity: cytotoxicity at 70.5 h (%)
Report the figure in % without appending any unit label.

Worked cases, cytotoxicity at 70.5 h given:
- compound: "CCC(=O)NCC(=O)NCC1(c2c(F)cccc2F)CCCC1"
  cytotoxicity at 70.5 h / %: -4.06
- compound: "CC1=Nc2c(c(=O)[nH]n2C(C)C)C(c2ccc3c(c2)OCCO3)S1 (configuration not stated)"
  cytotoxicity at 70.5 h / %: 7.71
- compound: "CC(C)C(CNC(=O)NCc1cc[nH]n1)N1CCOCC1 (configuration not stated)"
  cytotoxicity at 70.5 h / %: -5.25
- compound: "Cc1ncc(CN2CCOC(c3ccc(-c4cnn(C)c4)cn3)C2)s1 (configuration not stated)"
  cytotoxicity at 70.5 h / %: -6.63
- compound: "CN(Cc1ccco1)Cc1ccccc1CNC(=O)c1cnc[nH]1"
  cytotoxicity at 70.5 h / %: 13.3
- compound: "COCC(=O)N1CCCC(C(=O)NCc2cc(CC(C)C)on2)C1 (configuration not stated)"
  cytotoxicity at 70.5 h / %: 27

Task: Would you mind telling me what cytotoxicity at 70.5 h value was observed for CCCC(=O)N(CCCN1CCOCC1)c1nc2c(Cl)cccc2s1 ?
Output: 1.41

Task: Also need CN(C)c1ncccc1CNS(=O)(=O)c1cc(F)ccc1F , thanks.
Output: -11.5

Task: Also need Cn1ccc2c(ccn2CC(=O)Nc2ccc(Br)cc2)c1=O , thanks.
Output: 30.5

Task: Also need CC(C)c1nnc2n1CCN(CCS(=O)(=O)c1ccccc1)C2 , thanks.
Output: -2.01

Task: Also need Cc1ncc2c(n1)CCCC2NC(=O)c1ccccc1C(=O)O (configuration not stated) , thanks.
Output: -13.5

Task: Also need COc1cc(C(=O)NC(CC(=O)O)c2cccs2)cc(Cl)c1OC (configuration not stated) , thanks.
Output: -8.1

Task: Also need NC(=O)CC1CCN(C(=O)NCC2(c3ccccc3F)CC2)CC1 , thanks.
Output: 0.188

Task: Also need O=c1c2sccc2ncn1CC(O)CN1CCOCC1 (configuration not stated) , thanks.
Output: -10.3

Task: Also need Cc1cnc(N2C[C@@H]3[C@@H](C(=O)NCC(C)C)CCS(=O)(=O)[C@@H]3C2)nc1 , thanks.
Output: 0.36

Task: Also need CNC(=O)c1ccc(CN2CCN(C3=NCC(C)(C)S3)CC2)cc1 , thanks.
Output: 17.7

Task: Also need Cc1nn(C)c(C)c1C1CCCN1CCOc1ccccc1C#N (configuration not stated) , thanks.
Output: 1.39

Task: Also need COCCN1C(=O)CCC12CCN(c1ncc(F)cn1)CC2 , thanks.
Output: -2.74

Task: Also need Cc1nn(C)c(C)c1NC(=O)Nc1cccnc1N1CCCC1 , thanks.
Output: -7.71

Task: Also need Cc1cc(NC(C)c2nncn2C2CCCC2)n2nc(C)cc2n1 (configuration not stated) , thanks.
Output: -6.24

Task: Also need COc1cccc(OC)c1CN1CCC2(CC(Nc3ccncn3)C2)C1 (configuration not stated) , thanks.
Output: -9.12

Task: Also need Cc1ccc(-c2cc(CS(=O)(=O)NC3CCCNC3=O)on2)cc1 (configuration not stated) , thanks.
Output: 0.495

Task: Also need Cc1cc(C(=O)N2CCC3(CC(=O)NC3=O)C2)c(-c2ccccc2)o1 (configuration not stated) , thanks.
Output: 17.4

====

Test: Human HepG2 cell viability assay in 384 well format
Format: toxicity, cell-based
Design: dose 125 nL, time 70.5 hour; concentration not given beside the values
Conditions: HepG2 cells, read-out: Inhibition
quantity: cytotoxicity at 70.5 h
A complete answer gives the number and then names the unit.

- compound: "Cc1ccc(C(NC(=O)Cn2cc(C3CC3)nn2)C2CC2)cc1 (stereo not given)"
  cytotoxicity at 70.5 h: "-7.56%"
- compound: "CC(C)NC(=O)CN1CCSC2(CCCCC2)C1"
  cytotoxicity at 70.5 h: "18.3%"
- compound: "CCC[C@@H]1CN(C(=O)c2ccccc2C(C)=O)C[C@H]1N(C)C"
  cytotoxicity at 70.5 h: "7.99%"
- compound: "CCn1ccnc1CN(C)c1cc(OC)ncn1"
  cytotoxicity at 70.5 h: "-8.04%"
- compound: "COc1ccccc1CNCCc1cccc(C(N)=O)c1"
  cytotoxicity at 70.5 h: "-12.3%"
- compound: "COC(=O)C(C)(C)C(C)(C)NC(=O)Nc1nnc(-c2ccccn2)s1"
  cytotoxicity at 70.5 h: "-10.6%"

Task: Would you mind telling me what cytotoxicity at 70.5 h value was observed for Cc1ncsc1C(=O)NCCNc1ncccn1 ?
Output: 13.7%

Task: Also need Cc1ncc(CNC(=O)c2oc3ccccc3c2CN(C)C)s1 , thanks.
Output: -8.45%

Task: Also need Cc1cc(C)nc(CN(C)C(=O)C(c2cccnc2)N2CCCC2)c1 (stereo not given) , thanks.
Output: -9.19%

Task: Also need CC(C)Cc1cc(NC(=O)c2ccccc2F)n(C)n1 , thanks.
Output: -9.5%

Task: Also need O=C(C1CC1)N1CCN(Cc2coc(-c3ccc(Cl)cc3)n2)CC1 , thanks.
Output: 12.1%

Task: Also need CC(C)Oc1cccc2c1c(NC(=O)CN(C)C)nn2CC(F)(F)F , thanks.
Output: -8.54%

Task: Also need Cc1cc(C)n(-c2ccccc2NC(=O)NCCS(=O)(=O)CC(C)C)n1 , thanks.
Output: -8.6%

Task: Also need CCn1c(N)nc2cc(C(=O)N3CCC(N4CCCC4)CC3)cnc21 , thanks.
Output: -5.99%

Task: Also need COc1cc(OC)cc(N2CCC(NCc3ccsc3)C2=O)c1 (stereo not given) , thanks.
Output: 33.1%

====

Test: Human HepG2 cell viability assay in 384 well format
Type: toxicity, cell-based
Set-up: dose 125 nL, time 70.5 hour; concentration not given beside the values
Details: HepG2 cells, read-out: Inhibition
Below, each of the compounds is paired with its reported cytotoxicity at 70.5 h value.
Report the figure in % without appending any unit label.

- compound: "COC(=O)c1ccc(Cl)c(NS(=O)(=O)c2cnn(C)c2)c1"
  cytotoxicity at 70.5 h / %: 10.2
- compound: "COc1c(C)cnc(CN(C)C(=O)c2ccccn2)c1C"
  cytotoxicity at 70.5 h / %: 15.4
- compound: "COc1cccc(CN(C)Cc2ccccc2C#N)c1OC"
  cytotoxicity at 70.5 h / %: -1.91
- compound: "Cc1cnc(C(=O)N2CCc3ncnc(-c4cnn(C)c4)c3CC2)cn1"
  cytotoxicity at 70.5 h / %: 0.39
- compound: "CCOC(=O)CNC(=O)NCc1cccn1Cc1ccc(F)cc1"
  cytotoxicity at 70.5 h / %: 22.9

Task: Would you mind telling me what cytotoxicity at 70.5 h value was observed for CC1(C)CCN(S(=O)(=O)N2CCCC(c3cccc(C(=O)O)c3)C2)CC1 (stereo not drawn) ?
Output: -10.5

Task: Also need COc1ccc(N(Cc2ccco2)C(=O)C2CCOC2)cc1F (stereo not drawn) , thanks.
Output: -6.7

Task: Also need Cn1ccnc1SCCNc1nccc(C(F)(F)F)n1 , thanks.
Output: 16

Task: Also need CNc1nc(CNC(=O)Nc2cccc(C(C)OC)c2)cs1 (stereo not drawn) , thanks.
Output: -4.31

Task: Also need Cc1noc(C)c1CN(C)C(=O)Cn1c(=O)n(C)c2ccccc21 , thanks.
Output: -15.9

Task: Also need Nc1cc2c(nn1)CCN(C(=O)c1cccc3c1OCO3)C2 , thanks.
Output: 2.4

Task: Also need NC(=O)C1CCN(S(=O)(=O)c2cnn(-c3ccccc3)c2)C1 (stereo not drawn) , thanks.
Output: -3.49
